# System: MS2 coat protein
# Method Notes: apparent KD of MS2 coat protein; designed switch direction (-1 OFF switch, 1 ON switch): 1; higher = weaker reporter binding
# Reported Conditions: Eterna round: R95; input ligand: none

[
  {
    "Polymer Sequence": "AACAAUCUAUCUGAGGAUAUCAUGAAAUAAACAUGAGGAUCACCCAUGUGCAGGAAAACUGCAUUUGAGAAGGCAGAUAGAUUGA [salish99_ss2_r3_048] (puzzle: Same State 2)",
    "apparent KD of MS2 coat protein / nM": 67.2
  },
  {
    "Polymer Sequence": "CGAUGAUACUUAGGAAGAAGAGUUGAAGUACAUGAGGAUCACCCAUGUCAGAGCUUUUUGCUCGUCAUGAACAGGAA [JR_SHM208a_Sub006] (puzzle: Sensor for hsa-mir-208a)",
    "apparent KD of MS2 coat protein / nM": 52.9
  },
  {
    "Polymer Sequence": "UAAAUACAUGAGGAUCACCCAUGUCAAAAGACAUGAGGAUAUGUACAGACUUCGGUCUGUACAGAAGGCAUGAAUA [salish99_ss1_r3_096] (puzzle: Same State 1)",
    "apparent KD of MS2 coat protein / nM": 566
  },
  {
    "Polymer Sequence": "AACUUACUAUCUCAGGAUAUCAUGUCAAAGACAUGAGGAUCACCCAUGUACCAGGAAACUGGUUAUGAGAAGGGAGAUAGUAAGA [Mat - Same State 2 - Mod - D49] (puzzle: Same State 2)",
    "apparent KD of MS2 coat protein / nM": 611
  },
  {
    "Polymer Sequence": "AGUCCAGCCUGAGCUGGACAAAGGCAUGUACAUGAGGAUCACCCAUGUCAUGUACAAGCUUUUUGCUCGUCUUAAAA [Zipper 46 - 1] (puzzle: Sensor for hsa-mir-208a)",
    "apparent KD of MS2 coat protein / nM": 187
  }
]
